# Tested on: UniProt Q9BV86
# Sequence (Q9BV86 1-223): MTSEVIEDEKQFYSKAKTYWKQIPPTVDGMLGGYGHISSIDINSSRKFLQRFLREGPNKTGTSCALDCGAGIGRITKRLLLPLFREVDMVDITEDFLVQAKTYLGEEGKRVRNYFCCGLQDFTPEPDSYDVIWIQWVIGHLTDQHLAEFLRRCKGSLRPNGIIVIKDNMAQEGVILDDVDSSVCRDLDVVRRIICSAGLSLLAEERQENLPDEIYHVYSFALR
# Assay remarks: SAH hydrolase
# Format: biochemical
# Experimental parameters: IC50 ratio vs BM30
Recorded metric: fold loss in inhibition compared to 6 (BM30) (fold)

Some solved cases for reference:
INSERT INTO measurements (test_smiles, unit_string, assay_value) VALUES
  ('C[C@@H](O)[C@H](NC(=O)[C@H](CCCCN)NC(=O)[C@@H]1CCCN1C(=O)Cc1ccc(O)cc1)C(N)=O', 'fold', 5),
  ('N=C(N)NCCC[C@H](NC(=O)[C@H](CCCCN)NC(=O)[C@@H]1CCCN1C(=O)CCc1ccc(O)cc1)C(N)=O', 'fold', 5);

a = C[C@H](NC(=O)[C@H](CCCCN)NC(=O)[C@@H]1CCCN1C(=O)Cc1ccc(O)cc1)C(N)=O
b = NCCCC[C@H](NC(=O)[C@@H]1CCCN1C(=O)Cc1ccc(O)cc1)C(N)=O
Ask | Please choose the item with the lower fold loss in inhibition compared to 6 (BM30) value from this pair: a and b State the label of the item chosen.
Reply | a
(a: 5 fold, b: 18 fold)
